Reported MIC for target or system S. aureus BAA 977 iErmA, by entry.

>  <molecule>
CNC1CCO[C@@H]2[C@H](CN[C@@H]2C(=O)N[C@H]([C@H](C)Cl)[C@H]2OC(SC)[C@H](O)[C@H](O)C2O)C1 (stereo partly drawn)

>  <MIC>
> 64 µg/mL

$$$$
>  <molecule>
CSC1O[C@H]([C@H](NC(=O)[C@@H]2[C@@H]3OCC=CC[C@H]3CN2C)[C@H](C)Sc2ccc(-c3cccnc3)cc2)C(O)[C@@H](O)[C@H]1O (stereo partly drawn)

>  <MIC>
0.25 µg/mL

$$$$

// switching to the query molecule
S. aureus BAA 977 iErmA assay, molecule CCNC(=O)N1CCO[C@@H]2[C@H](CN[C@@H]2C(=O)N[C@H]([C@H](C)Cl)[C@H]2OC(SC)[C@H](O)C(O)C2O)C1 (stereo partly drawn) , recorded MIC = > 64 µg/mL

###

tested on: E. coli MMX 0121 ΔTolC
value kind: MIC (µg/mL)
Hi! Could you send only the number? It should be in µg/mL, unit omitted.

>  <compound>
CSC1O[C@H]([C@H](NC(=O)[C@H]2NC[C@@H]3CC=CCO[C@H]32)[C@H](C)Cl)C(O)[C@@H](O)[C@H]1O (stereo partly drawn)

>  <MIC, µg/mL>
4

$$$$
>  <compound>
CSC1O[C@H]([C@H](NC(=O)[C@H]2NC[C@@H]3C[C@@H](c4ccc(F)cc4)CCO[C@H]32)[C@H](C)Cl)C(O)[C@@H](O)[C@H]1O (stereo partly drawn)

>  <MIC, µg/mL>
2

$$$$
>  <compound>
CSC1O[C@H]([C@H](NC(=O)[C@@H]2[C@@H]3OCC=CC[C@H]3CN2C)[C@H](C)Sc2ccc(-c3cncnc3)cc2)C(O)[C@@H](O)[C@H]1O (stereo partly drawn)

>  <MIC, µg/mL>
1

$$$$

Fill in: E. coli MMX 0121 ΔTolC MIC for CSC1O[C@H]([C@H](NC(=O)[C@H]2NC[C@@H]3CC(F)(F)CCO[C@H]32)[C@H](C)Cl)C(O)[C@@H](O)[C@H]1O (stereo partly drawn) = 8

The value of MIC recorded for CSC1O[C@H]([C@H](NC(=O)[C@H]2NC[C@@H]3CC(c4ccc(F)cc4)=CCO[C@H]32)[C@H](C)Cl)C(O)[C@@H](O)[C@H]1O (stereo partly drawn) when tested on E. coli MMX 0121 ΔTolC reads 64

Entry CCC[C@@H]1C[C@@H](C(=O)N[C@@H]([C@H]2O[C@H](SC)[C@H](O)[C@@H](O)[C@H]2O)[C@H](C)Cl)N(C)C1 [Clindamycin, clindamycin, reference compound] , tested on E. coli MMX 0121 ΔTolC, has a reported MIC of 4

Measured MIC (E. coli MMX 0121 ΔTolC), entry CSC1O[C@H]([C@H](NC(=O)[C@H]2NC[C@@H]3CC=CCO[C@H]32)[C@H](C)Sc2ccc(-c3cncnc3)cc2)C(O)[C@@H](O)[C@H]1O (stereo partly drawn) : 8

###

system: H. influenzae ATCC 49247; assay: MIC determination; format: cell-based; details: Haemophilus influenzae, ATCC49247; H. influenzae ATCC 49247; read-out: MIC
Measured MIC, listed per entry.

Would you please look over these solved cases?
>  <molecule>
CSC1O[C@H]([C@H](NC(=O)[C@H]2NC[C@@H]3C=C(c4cc(F)cc(F)c4)CCO[C@@H]23)[C@H](C)Cl)C(O)[C@@H](O)[C@H]1O (stereo partly shown) [FSA-511074]

>  <MIC>
> 64 µg/mL

$$$$
>  <molecule>
CSC1O[C@H]([C@H](NC(=O)[C@H]2NC[C@@H]3C[C@H]4C[C@H]4CO[C@H]32)[C@H](C)Cl)C(O)C(O)[C@H]1O (stereo in doubt) [FSA-507007]

>  <MIC>
2 µg/mL

$$$$
>  <molecule>
CSC1O[C@H]([C@H](NC(=O)[C@H]2NC[C@@H]3C[C@@H](c4ccc(F)cc4)CCO[C@H]32)[C@H](C)Cl)C(O)[C@@H](O)[C@H]1O (stereo partly shown) [FSA-507061]

>  <MIC>
4 µg/mL

$$$$
>  <molecule>
COc1ccc(C2=C[C@H]3CN[C@H](C(=O)N[C@H]([C@H](C)Cl)[C@H]4OC(SC)[C@H](O)[C@H](O)C4O)[C@@H]3OCC2)cc1 (stereo partly shown) [FSA-512076]

>  <MIC>
128 µg/mL

$$$$

Entry CSC1O[C@H]([C@H](NC(=O)[C@H]2NC[C@@H]3CC(c4ccc(C(F)(F)F)cc4)=CCO[C@H]32)[C@H](C)Cl)C(O)[C@@H](O)[C@H]1O (stereo partly shown) [FSA-507060] , MIC reported as 32 µg/mL

The molecule listed as CSC1O[C@H]([C@H](NC(=O)[C@H]2NC[C@@H]3C=C(c4ccccc4F)CCO[C@@H]23)[C@H](C)Cl)C(O)[C@@H](O)[C@H]1O (stereo partly shown) [FSA-511073] shows MIC equal to > 64 µg/mL

The value of MIC measured for the molecule CSC1O[C@H]([C@H](NC(=O)[C@@H]2[C@@H]3OCC=CC[C@H]3CN2C)[C@H](C)Sc2ccc(-c3cncnc3)cc2)C(O)[C@@H](O)[C@H]1O (stereo partly shown) [FSA-212034] turned out to be 4 µg/mL

All values here come from patent US11767341B2.
